Reported melting point values for a set of compounds

O=C(O)C(O)C1CCOCC1 (configuration not stated); 79 to 81 °C
COc1cc(NC(=O)OC(C)(C)C)c(Cl)cc1C(=O)O; 155 to 157 °C
CS(=O)Cc1cc(N)ccc1Cl (configuration not stated); 200 to 202 °C
NC(=O)c1cccc(Oc2ccc(N)nc2)c1; 162 to 164 °C
Oc1ccc(OC2CCCC2)cc1; 50 to 52 °C
CC(C)(C)OC(=O)NCCCn1ccc2cc(C(=O)O)ccc21; 172 to 174 °C

Return reported melting point; argument: CCOC(=O)c1cc(-c2ccccc2)sc1N
118 to 120 °C

Subsequent entry: O=C(O)C1(S(=O)(=O)c2ccc(Br)cc2)CCCC1
138 to 140 °C

Subsequent entry: O=C(O)CCCn1cncn1
140 to 142 °C

Subsequent entry: Cc1nnc(CCl)s1
76 to 78 °C

Subsequent entry: Nc1nnc(-c2ccc(F)cc2)[nH]1
223 to 227 °C

Subsequent entry: Nc1ccc2c(c1)NC(=O)CC2
210 to 212 °C

Subsequent entry: COCc1cccc2sc(N)nc12
139 to 141 °C

Subsequent entry: Cc1occc1-c1nnc(S)n1N
159 to 161 °C

Subsequent entry: O=C1CCCCCN1CO
63 to 67 °C

Subsequent entry: Nc1nc(Cc2ccccc2Br)cs1
115 to 117 °C

Subsequent entry: COC(=O)c1ccc(S(N)(=O)=O)cc1Cl
124 to 126 °C

Subsequent entry: COc1ccc(S(=O)(=O)NC(C(=O)O)C(C)C)cc1 (configuration not stated)
172 to 174 °C

Subsequent entry: Cc1cc(N2CC(C(=O)O)CC2=O)ccc1Br (configuration not stated)
167 to 169 °C

Subsequent entry: Cc1ccc2cccc(S(=O)(=O)Cl)c2n1
113 to 115 °C

Subsequent entry: CC1CN(c2cc(N)cc(F)c2)CC(C)O1 (configuration not stated)
80 to 82 °C

Subsequent entry: Nc1cccc(N2CCNC2=O)c1
149 to 151 °C

Subsequent entry: O=C(NC1CC1)OCC(F)(F)F
53 to 55 °C

Subsequent entry: CSc1cc(C)ccc1C(=O)O
176 to 178 °C
